B1: NETO1 (parent)
chain: KTSLLDQLTNTSGTVIGVTSCIVI

Variants of: B1
Assay: protein stability index of a GFP-peptide fusion (GPS, HEK-293T) (PSI 1-6); higher = more stable;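 also: lentivirally expressed fusions sorted by FACS into six bins by GFP to DsRed ratio, PSI derived from sequencing read proportions per bin multiplied by bin number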
Settings: c terminus: a fixed tail appended
This section presents variants with their documented protein stability index values.

variant-designation: V18Y
protein stability index: 3.56

variant-designation: V18R
protein stability index: 2.23

variant-designation: C21N
protein stability index: 3.1

variant-designation: T14V
protein stability index: 3.29

variant-designation: V18D
protein stability index: 2.55

variant-designation: T9R
protein stability index: 2.21

variant-designation: T19Y
protein stability index: 2.79

variant-designation: G13N
protein stability index: 3.9

variant-designation: T14R
protein stability index: 3.41

variant-designation: V18S
protein stability index: 3.67

variant-designation: S3L
protein stability index: 2.17

variant-designation: V23H
protein stability index: 1.97

variant-designation: L5R
protein stability index: 3.13

variant-designation: K1W
protein stability index: 3.48

variant-designation: N10T
protein stability index: 2.41

variant-designation: N10K
protein stability index: 3.15

variant-designation: I16D
protein stability index: 2.52

variant-designation: D6V
protein stability index: 2.61

variant-designation: L4Y
protein stability index: 2.83

variant-designation: Q7L
protein stability index: 3.27

variant-designation: I24F
protein stability index: 1.79

variant-designation: Q7Y
protein stability index: 2.47

variant-designation: L8M
protein stability index: 2.83

variant-designation: T11D
protein stability index: 3.42

variant-designation: T14Q
protein stability index: 3.41

variant-designation: T11P
protein stability index: 3.64

variant-designation: I24V
protein stability index: 2.2

variant-designation: L5D
protein stability index: 2.98

variant-designation: D6Q
protein stability index: 2.18

variant-designation: T11N
protein stability index: 2.29

variant-designation: T9P
protein stability index: 2.6

variant-designation: I24T
protein stability index: 1.6

variant-designation: S12N
protein stability index: 3.41

variant-designation: C21R
protein stability index: 3.31

variant-designation: S3A
protein stability index: 3.59

variant-designation: T2N
protein stability index: 2.4

variant-designation: D6I
protein stability index: 3.8

variant-designation: T2H
protein stability index: 2.98

variant-designation: S20W
protein stability index: 3.86

variant-designation: V15G
protein stability index: 2.98

variant-designation: I24E
protein stability index: 2.21

variant-designation: G17I
protein stability index: 3.43

variant-designation: S20T
protein stability index: 2.37

variant-designation: S12P
protein stability index: 2.51

variant-designation: G13Y
protein stability index: 3.2

variant-designation: T19W
protein stability index: 2.06

variant-designation: T9N
protein stability index: 3.29

variant-designation: D6W
protein stability index: 3.03

variant-designation: D6K
protein stability index: 1.98

variant-designation: G13P
protein stability index: 2.94

variant-designation: T2C
protein stability index: 1.93

variant-designation: T11K
protein stability index: 3.11

variant-designation: G13E
protein stability index: 3.52

variant-designation: S12D
protein stability index: 3.07

variant-designation: N10C
protein stability index: 2.71

variant-designation: K1S
protein stability index: 3

variant-designation: C21K
protein stability index: 3.29

variant-designation: G17E
protein stability index: 2.69

variant-designation: V23A
protein stability index: 2.03

variant-designation: I22A
protein stability index: 2.12

variant-designation: L8N
protein stability index: 2.56

variant-designation: G17A
protein stability index: 2.71

variant-designation: Q7E
protein stability index: 2.27

variant-designation: T9K
protein stability index: 3.98

variant-designation: I24L
protein stability index: 3.2

variant-designation: T9F
protein stability index: 2.37

variant-designation: S3Y
protein stability index: 3.56

variant-designation: T9A
protein stability index: 2.1

variant-designation: V23E
protein stability index: 2.98

variant-designation: L5W
protein stability index: 3.45

variant-designation: T11V
protein stability index: 2.65

variant-designation: S12A
protein stability index: 2.96

variant-designation: G17Q
protein stability index: 2.36

variant-designation: V23M
protein stability index: 2.56

variant-designation: T11F
protein stability index: 2.35

variant-designation: I22G
protein stability index: 2.36

variant-designation: T19N
protein stability index: 3.28

variant-designation: V18T
protein stability index: 2.93

variant-designation: S3P
protein stability index: 2.58

variant-designation: V15H
protein stability index: 1.99

variant-designation: S3G
protein stability index: 1.92

variant-designation: N10P
protein stability index: 2.96

variant-designation: I16E
protein stability index: 2.85

variant-designation: G17S
protein stability index: 3.25

variant-designation: G17V
protein stability index: 2.91

variant-designation: T19E
protein stability index: 2.68

variant-designation: T2I
protein stability index: 3.34

variant-designation: L4N
protein stability index: 2.6

variant-designation: V23K
protein stability index: 3.04

variant-designation: S3Q
protein stability index: 3.04

variant-designation: T11C
protein stability index: 3.13
